All figures here come from patent US12698507B2.

STUDY_TARGET: Thermosynechococcus elongatus PKUAC-SCTE542 protoporphyrinogen IX oxidase CyPPO19 (SEQ ID NO: 1) variant V305M (MBP fusion) (Thermosynechococcus sichuanensis, UniProt A0A7D6JSC1, V305M)
Sequence (A0A7D6JSC1 entry or part of it V305M): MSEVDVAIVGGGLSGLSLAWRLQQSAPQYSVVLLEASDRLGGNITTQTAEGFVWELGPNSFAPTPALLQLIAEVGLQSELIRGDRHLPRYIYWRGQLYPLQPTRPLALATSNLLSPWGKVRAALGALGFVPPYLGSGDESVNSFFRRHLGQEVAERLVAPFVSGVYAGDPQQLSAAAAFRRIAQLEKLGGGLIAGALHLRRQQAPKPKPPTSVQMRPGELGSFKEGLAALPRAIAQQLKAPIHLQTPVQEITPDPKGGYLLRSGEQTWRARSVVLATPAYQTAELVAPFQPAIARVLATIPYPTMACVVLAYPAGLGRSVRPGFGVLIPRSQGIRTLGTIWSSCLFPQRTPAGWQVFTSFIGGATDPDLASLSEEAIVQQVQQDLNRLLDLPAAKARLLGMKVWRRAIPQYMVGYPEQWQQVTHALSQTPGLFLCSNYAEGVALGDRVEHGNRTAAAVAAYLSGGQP
PROTOCOL_DETAILS: PPO enzyme inhibition assay (IC50 for herbicides), CyPPO19 V305M fused to MBP
Format: biochemical
EXPERIMENTAL_ENDPOINT: pIC50
Numbers only, as −log10 of the molar value.

Guide cases for pIC50, answers given:
>>> value_observed("COC(=O)CCNC(=O)C(C)Sc1cc(-n2c(=O)cc(C(F)(F)F)n(C)c2=O)c(F)cc1Cl (stereo not drawn) [Tiafenacil]")
6.41
>>> value_observed("CS(=O)(=O)NC(=O)c1cc(Oc2ccc(C(F)(F)F)cc2Cl)ccc1[N+](=O)[O-] [Fomesafen]")
6.59

Shifting focus to the compound that follows.
**Query** What value of pIC50 has been recorded for this entry: CCOc1cc(Oc2ccc(C(F)(F)F)cc2Cl)ccc1[N+](=O)[O-] [Oxyfluorfen]
**Result** 6.14
